Reference for the values: ChEMBL document CHEMBL5236598

Assignment: determine reported selectivity ratio for the given molecules.
Test: Selectivity index, ratio of CC50 for cytotoxicity against human MT4 cells to EC50 for antiviral activity against HIV-1 RES056 harboring RT K103N/Y181C double mutant infected in human MT4 cells
Type: toxicity, cell-based
Settings: read-out: Ratio CC50/EC50
Lab note: record just the number, no unit beside it.

Q) Query: selectivity ratio; subject: Cc1cc(C#N)cc(C)c1Oc1nc(NC2CCN(c3ccc(NS(N)(=O)=O)cc3)CC2)nc2sccc12
A) 39

Q) Quick one: Cc1cc(-c2ccc(C#N)cc2)cc(C)c1Oc1nc(Nc2ccc(C#N)nc2)nc2ccsc12
A) 563

Q) Quick one: Cc1cc(/C=C/C#N)cc(C)c1Oc1nc(Nc2ccc(C#N)c(F)c2)nc2cc[nH]c12
A) 4.1

Q) Quick one: Cc1cc(-c2ccc(C#N)cc2)cc(C)c1Oc1nc(Nc2ccc(C#N)c(F)c2)nc2ccsc12
A) 11

Q) Quick one: N#C/C=C/c1cc(F)c(Oc2nc(Nc3ccc(C#N)nc3)nc3c2COC3)c(F)c1
A) 20

* * *

Assay: Selectivity index, ratio of CC50 for cytotoxicity against human MT4 cells to EC50 for antiviral activity against HIV-1 RES056 harboring RT K103N/Y181C double mutant infected in human MT4 cells
Format: toxicity, cell-based
Conditions: read-out: Ratio CC50/EC50
Assignment: determine reported selectivity ratio for the given compounds.
Lab note: record just the number, no unit beside it.

Q) Query: selectivity ratio; subject: Cc1cc(/C=C/C#N)cc(C)c1Oc1nc(Nc2ccc(C#N)c(F)c2)nc2c1COC2
A) 857

Q) Quick one: N#C/C=C/c1cc(F)c(Oc2nc(Nc3ccc(C#N)c(F)c3)nc3ccsc23)c(F)c1
A) 14

Q) Quick one: Cc1cc(/C=C/C#N)cc(C)c1Oc1nc(NC2CCN(c3c(F)cc(NS(N)(=O)=O)cc3F)CC2)nc2ccsc12
A) 10

Q) Quick one: Cc1cc(/C=C/C#N)cc(C)c1Oc1nc(NC2CCN(c3ccc(NS(N)(=O)=O)cc3F)CC2)nc2ccsc12
A) 26

Q) Quick one: Cc1cc(/C=C/C#N)cc(C)c1Oc1nc(NC2CCN(c3c(F)cc([N+](=O)[O-])cc3F)CC2)nc2ccsc12
A) 13

Q) Quick one: N#C/C=C/c1cc(F)c(Oc2nc(Nc3ccc(C#N)nc3)nc3ccsc23)c(F)c1
A) 22

Q) Quick one: Cc1cc(C#N)cc(C)c1Oc1nc(NC2CCN(c3ccc(N)cc3F)CC2)nc2sccc12
A) 10

Q) Quick one: Cc1cc(C#N)cc(C)c1Oc1nc(NC2CCN(c3ccc(NS(N)(=O)=O)cc3F)CC2)nc2sccc12
A) 6

Q) Quick one: Cc1cc(-c2ccc(F)cc2)cc(C)c1Oc1nc(Nc2ccc(C#N)c(F)c2)nc2ccsc12
A) 11

Q) Quick one: Cc1cc(C#N)cc(C)c1Oc1nc(NC2CCN(c3ccc(NS(N)(=O)=O)cc3F)CC2)nc2ccsc12
A) 5

Q) Quick one: N#C/C=C/c1cc(F)c(Oc2nc(Nc3ccc(C#N)nc3)nc3sccc23)c(F)c1
A) 1.7

Q) Quick one: Cc1cc(-c2ccc(C#N)cc2)cc(C)c1Oc1nc(Nc2ccc(C#N)nc2)nc2sccc12
A) 119

Q) Quick one: Cc1cc(-c2ccc(F)cc2)cc(C)c1Oc1nc(Nc2ccc(C#N)c(F)c2)nc2sccc12
A) 2.6
